run_description: Half life in mouse liver microsomes in presence of NADPH by liquid chromatographic method
Format: ADME
run_parameters: liver microsomes
assay_readout: half-life (min)

Consider the following illustrative entries.
smiles_text=N#Cc1ccc(CNC(=O)CCCCCN2CCN(c3ccc(F)cc3-c3ccc(C#N)cc3)CC2)cc1 value_reported=26
smiles_text=COc1ccc(-c2ccccc2N2CCN(CCCCCC(=O)N[C@H](C)c3ccc(C#N)cc3)CC2)cc1 value_reported=23

1 = COc1ccc(-c2ccccc2N2CCN(CCCCCC(=O)NCc3ccc(C#N)cc3)CC2)cc1
2 = COc1ccc(-c2ccccc2N2CCN(CCCCCC(=O)N[C@@H](C)c3ccc(C#N)cc3)CC2)cc1
Query: Which has the higher half-life, 1 or 2 ? State your choice using its label.
Reply: 2

---

run_description: Ratio of drug uptake in CD-1 mouse brain to plasma at 10 mg/kg, ip administered as single dose by LC/MS analysis
Type: ADME, organism-based
run_parameters: read-out: BPR
assay_readout: Kp
# respond with the number and nothing more

Query: What Kp value was documented for this compound, `COc1ccc(-c2cc(F)ccc2N2CCN(CCCCCC(=O)NCc3ccc(C#N)cc3)CC2)cc1` ?
Reply: 0.5

---

system_tested: 5-hydroxytryptamine receptor 7 (Homo sapiens, UniProt P34969)
Sequence (P34969 whole entry): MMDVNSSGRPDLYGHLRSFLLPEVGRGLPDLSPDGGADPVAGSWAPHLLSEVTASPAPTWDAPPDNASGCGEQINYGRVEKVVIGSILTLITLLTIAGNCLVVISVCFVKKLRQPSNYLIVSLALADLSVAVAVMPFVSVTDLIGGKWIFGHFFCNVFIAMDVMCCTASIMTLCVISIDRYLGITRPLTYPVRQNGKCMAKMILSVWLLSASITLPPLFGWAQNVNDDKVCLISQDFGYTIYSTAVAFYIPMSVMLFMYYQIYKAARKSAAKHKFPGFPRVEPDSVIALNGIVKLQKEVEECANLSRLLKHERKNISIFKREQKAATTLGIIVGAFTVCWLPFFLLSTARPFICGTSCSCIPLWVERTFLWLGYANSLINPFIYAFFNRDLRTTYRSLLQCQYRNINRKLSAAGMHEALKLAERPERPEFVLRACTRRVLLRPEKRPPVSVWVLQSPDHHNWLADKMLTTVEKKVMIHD
assay_readout: Ki (nM)

Consider the following illustrative entries.
smiles_text=N#Cc1ccc(CNC(=O)CCOCCN2CCN(c3ncccc3-c3ccccc3)CC2)cc1 assay_readout=Ki value_reported=76
smiles_text=O=C(CCOCCN1CCN(c2ncccc2-c2ccccc2)CC1)NCc1ccc(C(F)(F)F)cc1 assay_readout=Ki value_reported=52
smiles_text=C[C@H]1CN(c2ccccc2-c2ccccc2)CCN1CCCCCC(=O)NCc1ccccc1 assay_readout=Ki value_reported=36.5

I = O=C(CCOCCN1CCN(c2cccnc2-c2ccccc2)CC1)NCc1ccc(C(F)(F)F)cc1
II = C[C@H](NC(=O)CCCCCN1CCN(c2ccccc2-c2ccccc2)CC1)c1ccccc1
Query: Which has the higher Ki, I or II ? State your choice using its label.
Reply: I

---

run_description: Stability in mouse liver microsomes assessed as oxidative metabolism by measuring drug recovery at 10 uM preincubated for 10 mins followed by NADPH addition measured after 30 mins by liquid chromatographic method
Format: ADME
run_parameters: liver microsomes, read-out: Drug recovery
assay_readout: remaining at 0.5 h, 10 µM (%)

Consider the following illustrative entries.
smiles_text=O=C(CCOCCN1CCN(c2ccccc2-c2ccccc2)CC1)NCc1ccncc1 value_reported=13
smiles_text=O=C(CCOCCN1CCN(c2cccnc2-c2ccccc2)CC1)NCc1ccc(C(F)(F)F)cc1 value_reported=1
smiles_text=COc1ccc(-c2ccccc2N2CCN(CCCCCC(=O)NCc3ccc(C#N)cc3)CC2)cc1 value_reported=25
smiles_text=COc1ccc(-c2ccccc2N2CCN(CCCCCC(=O)NCc3ccc(OCCO)cc3)CC2)cc1 value_reported=19
smiles_text=COc1ccc(-c2ccccc2N2CCN(CCCCCC(=O)N[C@H](C)c3ccc(C#N)cc3)CC2)cc1 value_reported=26
smiles_text=C[C@@H](NC(=O)CCCCCN1CCN(c2ccccc2-c2ccccc2)CC1)c1ccccc1 value_reported=9

1 = COc1ccc(-c2ccccc2N2CCN(CCCCCC(=O)NCc3ccccn3)CC2)cc1
2 = COc1ccc(-c2ccccc2N2CCN(CCCCCC(=O)NCc3ccncc3)CC2)cc1
Query: Which has the higher remaining at 0.5 h, 10 µM, 1 or 2 ? State your choice using its label.
Reply: 2
(2: 35%, 1: 6%)

---

system_tested: 5-hydroxytryptamine receptor 1A (Homo sapiens, UniProt P08908)
Sequence (P08908 whole entry): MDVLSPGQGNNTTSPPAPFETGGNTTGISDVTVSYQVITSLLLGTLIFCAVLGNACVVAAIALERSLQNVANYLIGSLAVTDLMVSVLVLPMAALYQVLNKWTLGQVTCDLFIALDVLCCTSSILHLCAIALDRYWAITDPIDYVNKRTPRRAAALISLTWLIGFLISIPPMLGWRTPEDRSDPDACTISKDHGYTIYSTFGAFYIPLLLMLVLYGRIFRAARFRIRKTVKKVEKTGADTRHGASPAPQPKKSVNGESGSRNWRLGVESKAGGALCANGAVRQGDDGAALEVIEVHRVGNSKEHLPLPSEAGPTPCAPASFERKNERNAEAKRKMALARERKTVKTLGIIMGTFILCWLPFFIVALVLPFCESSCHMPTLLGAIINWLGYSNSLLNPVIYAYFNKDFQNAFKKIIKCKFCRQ
assay_readout: Ki (nM)

smiles_text=C[C@H]1CN(c2ccccc2-c2ccccc2)CCN1CCCCCC(=O)NCc1ccccc1 assay_readout=Ki u=nM value_reported=202
smiles_text=COc1ccc(-c2ccccc2N2CCN(CCCCCC(=O)N[C@H](C)c3ccccc3)CC2)cc1 assay_readout=Ki u=nM value_reported=134

I = COc1ccc(-c2ccccc2N2CCN(CCCCCC(=O)NCc3ccc(OCCN4CCOCC4)cc3)CC2)cc1
II = C[C@H](NC(=O)CCCCCN1CCN(c2ccccc2-c2ccccc2)CC1)c1ccccc1
III = O=C(CCOCCN1CCN(c2cccnc2-c2ccccc2)CC1)NCc1ccc(C(F)(F)F)cc1
Query: With regard to Ki, arrange the entries in ascending order, please. Give the order by naming the labels one after another as requested.
Reply: II, I, III

---

system_tested: 5-hydroxytryptamine receptor 6 (Homo sapiens, UniProt P50406)
Sequence (P50406 whole entry): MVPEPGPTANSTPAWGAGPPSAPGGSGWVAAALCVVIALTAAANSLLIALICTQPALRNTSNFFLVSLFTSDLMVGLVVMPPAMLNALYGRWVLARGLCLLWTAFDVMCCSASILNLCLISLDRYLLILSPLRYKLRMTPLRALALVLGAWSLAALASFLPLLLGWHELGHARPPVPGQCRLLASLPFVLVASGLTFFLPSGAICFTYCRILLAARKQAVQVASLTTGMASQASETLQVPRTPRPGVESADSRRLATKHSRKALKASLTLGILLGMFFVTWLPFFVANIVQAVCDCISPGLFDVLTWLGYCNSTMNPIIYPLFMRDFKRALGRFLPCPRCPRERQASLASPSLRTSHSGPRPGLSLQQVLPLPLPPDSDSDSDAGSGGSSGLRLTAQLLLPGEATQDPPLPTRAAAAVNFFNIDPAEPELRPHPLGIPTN
run_description: Displacement of [3H]-LSD from human 5-HT6 receptor after […] by cell based assay
assay_readout: pKi
Remember, pKi is on a log scale: it is -log10 of the molar concentration.

Query: Checklist item: pKi tested on 5-hydroxytryptamine receptor 6 (Homo sapiens, UniProt P50406), entry `N#Cc1ccc(CNC(=O)CCCCCN2CCN(c3ccccc3-c3ccccc3)CC2)cc1` , value?
Reply: 5.80

---

run_description: Retention factor, logKw of compound in MeOH/0.01 M phosphate buffer at pH 7.4 by RP-HPLC method
Type: physicochemical
assay_readout: logKw

Consider the following illustrative entries.
smiles_text=O=C(CCOCCN1CCN(c2ccccc2-c2ccccc2)CC1)NCc1ccncc1 value_reported=0.27
smiles_text=COc1ccc(-c2ccccc2N2CCN(CCCCCC(=O)N[C@@H](C)c3ccccc3)CC2)cc1 value_reported=0.71
smiles_text=COc1ccc(-c2ccccc2N2CCN(CCCCCC(=O)NCc3cccnc3)CC2)cc1 value_reported=0.38
smiles_text=C[C@H]1CN(c2ccccc2-c2ccccc2)CCN1CCCCCC(=O)NCc1ccccc1 value_reported=0.59
smiles_text=COc1ccc(-c2ccccc2N2CCN(CCCCCC(=O)N[C@H](C)c3ccccc3)CC2)cc1 value_reported=0.71

I = O=C(CCOCCN1CCN(c2cccnc2-c2ccc(F)cc2)CC1)NCc1ccc(C(F)(F)F)cc1
II = O=C(CCCCCN1CCN(c2ccccc2-c2ccccc2)CC1)NCc1ccc(OCCCN2CCOCC2)cc1
III = COCOc1ccc(CNC(=O)CCCCCN2CCN(c3ccccc3-c3ccccc3)CC2)cc1
IV = COc1ccc(-c2ccccc2N2CCN(CCOCCC(=O)NCc3cccnc3)CC2)cc1
Query: With regard to logKw, arrange the entries in ascending order, please. Give the order by naming the labels one after another as requested.
Reply: I, IV, III, II

---

system_tested: D(2) dopamine receptor (Homo sapiens, UniProt P14416)
Sequence (P14416 whole entry): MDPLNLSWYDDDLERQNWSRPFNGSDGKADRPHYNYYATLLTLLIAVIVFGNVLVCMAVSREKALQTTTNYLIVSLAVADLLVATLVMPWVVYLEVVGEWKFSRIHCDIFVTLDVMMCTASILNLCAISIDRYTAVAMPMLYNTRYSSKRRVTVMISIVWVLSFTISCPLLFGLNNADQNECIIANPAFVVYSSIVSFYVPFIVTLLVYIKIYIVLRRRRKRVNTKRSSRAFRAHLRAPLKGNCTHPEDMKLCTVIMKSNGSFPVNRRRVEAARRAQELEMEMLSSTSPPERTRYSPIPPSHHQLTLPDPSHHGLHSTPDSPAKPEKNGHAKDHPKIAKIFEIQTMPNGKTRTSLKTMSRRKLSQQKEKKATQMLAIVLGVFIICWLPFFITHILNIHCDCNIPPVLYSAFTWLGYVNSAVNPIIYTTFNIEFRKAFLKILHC
run_description: Displacement of [3H]raclopride from human dopamine D2L receptor expressed in HEK293 cell membranes after 1 hr by microbeta counting analysis
Type: cell-based
assay_readout: Ki (µM)

Consider the following illustrative entries.
smiles_text=COc1ccc(-c2ccccc2N2CCN(CCCCCC(=O)NCc3ccc(OCCCN4CCOCC4)cc3)CC2)cc1 assay_readout=Ki u=µM value_reported=0.26
smiles_text=C[C@H]1CN(c2ccccc2-c2ccccc2)CCN1CCCCCC(=O)NCc1ccccc1 assay_readout=Ki u=µM value_reported=0.243

a = COCOc1ccc(CNC(=O)CCCCCN2CCN(c3ccccc3-c3ccc(OC)cc3)CC2)cc1
b = C[C@@H](NC(=O)CCCCCN1CCN(c2ccccc2-c2ccccc2)CC1)c1ccccc1
c = N#Cc1ccc(CNC(=O)CCOCCN2CCN(c3cccnc3-c3ccc(F)cc3)CC2)cc1
Query: With regard to Ki, arrange the entries in ascending order, please. Give the order by naming the labels one after another as requested.
Reply: b, a, c

---

system_tested: D(2) dopamine receptor (Homo sapiens, UniProt P14416)
run_description: Displacement of [3H]raclopride from human dopamine D2L receptor expressed in HEK293 cell membranes after 1 hr by microbeta counting analysis
Format: cell-based
pKi: −log10 of the molar value.
assay_readout: pKi

smiles_text=COc1ccc(-c2ccccc2N2CCN(CCCCCC(=O)N[C@@H](C)c3ccc(C#N)cc3)CC2)cc1 assay_readout=pKi value_reported=6.51
smiles_text=O=C(CCOCCN1CCN(c2ccccc2-c2ccccc2)CC1)NCc1ccc(C(F)(F)F)cc1 assay_readout=pKi value_reported=6.46
smiles_text=COc1ccc(-c2ccccc2N2CCN(CCCCCC(=O)N[C@@H](C)c3ccccc3)CC2)cc1 assay_readout=pKi value_reported=6.75
smiles_text=COCOc1ccc(CNC(=O)CCCCCN2CCN(c3ccccc3-c3ccccc3)CC2)cc1 assay_readout=pKi value_reported=7.44

a = COc1ccc(-c2ccccc2N2CCN(CCCCCC(=O)N[C@H](C)c3ccc(C#N)cc3)CC2)cc1
b = O=C(CCOCCN1CCN(c2ccccc2-c2ccccc2)CC1)NCc1ccncc1
Query: Pick one: a or b . Which one has the lower reported pKi? State your choice using its label.
Reply: b
(b: 5.61, a: 6.61)

Numbers sourced from ChEMBL document CHEMBL3856221.
